molecular target: ACCase (Lolium perenne); construct: native enzyme, young leaf extract, ammonium sulfate fraction, desalted; isoforms not separated; test: ATP-dependent incorporation of […]-bicarbonate into malonyl-CoA; assay type: biochemical; conditions: R population extract, heterogeneous alleles; 5 mM acetyl-CoA, pH 8.3, 34°C; stated gain; read-out: I50
measured quantity: IC50 (µM)
Expressed in µM, but write only the number.

Sample CC(Oc1ccc(Oc2ccc(Cl)cc2Cl)cc1)C(=O)O (stereo not shown) — what was its IC50?
68.6

* * *

target: ACCase (Lolium perenne); construct: native enzyme, young leaf extract, ammonium sulfate fraction, desalted; isoforms not separated; assay: ATP-dependent incorporation of […]-bicarbonate into malonyl-CoA; type: biochemical; conditions: S population; partially purified leaf extract; 5 mM acetyl-CoA, pH 8.3, 34°C; diclofop-acid per methods; read-out: I50
measured quantity: IC50 (µM)
Expressed in µM, but write only the number.

Sample CC(Oc1ccc(Oc2ccc(Cl)cc2Cl)cc1)C(=O)O (stereo not shown) [diclofop-acid] — what was its IC50?
6.2
